Measured values drawn from PubChem BioAssay (NCI) for this set.

Form field: TGI (one value per entry).
Tested on: OVCAR-4 ovarian
procedureDetails: NCI tumour cell line growth inhibition, 48 h
Where a SMILES comes first, the peptide text is derived from it. [ ]: non-standard residue; d: D form. β3hI = CC[CH](C)[CH](N)CC(=O)O
measurementType: TGI

compound: C[C@@]12CCC(=O)C=C1CC[C@H]1C2=CC[C@]2(C)C1CC[C@@]2(C)O (stereo partly drawn)
targetDesc: OVCAR-4 ovarian
measurementType: TGI
valueObserved: > 100 µM

compound: N#CCCN(c1ccc(-c2nnc(NC(=O)CNNC(=O)CC(=O)Nc3ccccc3)s2)cc1)S(=O)(=O)c1ccccc1
targetDesc: OVCAR-4 ovarian
measurementType: TGI
valueObserved: > 100 µM

compound: CCC(C)C(CC(=O)N1CCCC1C(=O)NC(C(=O)NC(C(=O)NCC(=O)NC(CC(N)=O)C(=O)NC(C(=O)NC(C(=O)NC(CCCCN)C(N)=O)C(C)CC)C(C)CC)C(C)C)C(C)CC)NC(=O)C(N)C(C)CC (stereo not drawn) (H-I[β3hI]PIVGNIIK-NH2; configuration not given here)
targetDesc: OVCAR-4 ovarian
measurementType: TGI
valueObserved: > 50 µM

====

Tested on: MDA-MB-231 breast
procedureDetails: NCI tumour cell line growth inhibition, 48 h
As shown below, each of these compounds has a reported log10 TGI value.
measurementType: log10 TGI (log10 of the value in µM)

compound: CN(C1=NCCO1)c1cccc2c1CCCC2
log10 TGI: 0.72
--
compound: CCOC(=O)c1sc(Nc2ccc(Cl)cc2)nc1C
log10 TGI: 0.42
--
compound: COc1cc([C@@H]2c3[nH]c4ccccc4c3C(Nc3ccc([N+](=O)[O-])cc3)[C@H]3COC(=O)N23)cc(OC)c1O (stereo partly drawn)
log10 TGI: -0.19
--
compound: CC(C)NC(=O)OCCN=C1c2ccccc2CCc2ccccc21
log10 TGI: 1.82
--
compound: N#CC1=C(N)OC(c2ccc([N+](=O)[O-])cc2)C1(C#N)C#N (stereo not drawn)
log10 TGI: 1.48

====

TGI reference
Tested on: 786-0 renal
procedureDetails: NCI tumour cell line growth inhibition, 48 h

compound: COc1ccc(/C=C2\CCC(C)(CN(C)C)C2=O)cc1 (stereo not given)
TGI: > 100 µM
//
compound: Cc1[nH]c(=O)nc(NCCNCCO)c1C(=O)Nc1c2ccccc2nc2ccccc12
TGI: > 100 µM
//
compound: COC(=O)C1(Cc2ccccc2)Cc2ccc3c(c2C1=O)CCC3 (stereo not given)
TGI: > 100 µM
//
compound: O=C1C=C(NCCc2cc(Br)c(O)c(Br)c2)C(=O)c2ncccc21
TGI: 13.6 µM
//
compound: CC(C)(C)C(=O)C(C(c1ccccc1)N1CCOCC1)N1CCOCC1 (stereo not given)
TGI: > 100 µM
//
compound: O=C(OCC1OC(c2nn[nH]n2)C(OC(=O)c2ccccc2)C1OC(=O)c1ccccc1)c1ccccc1 (stereo not given)
TGI: > 100 µM
//
compound: COP1(=O)Oc2ccccc2C(=O)C(C(F)(F)F)(C(F)(F)F)O1 (stereo not given)
TGI: > 100 µM
//
compound: COC(=O)C(Cc1ccccc1)OC(=O)C(N)CC(=O)O (stereo not given)
TGI: > 100 µM
//
compound: COc1cccc(N2C(=O)CSC2c2cc(OC)c(OC)c(OC)c2)c1 (stereo not given)
TGI: > 100 µM
//
compound: C1=Cc2nc1c(-c1ccncc1)c1ccc([n-]1)c(-c1ccncc1)c1nc(c(-c3ccncc3)c3ccc([n-]3)c2-c2ccncc2)C=C1.[Zn+2]
TGI: > 100 µM
//
compound: COc1cc(-c2cc(-c3nc4ccc(Cl)cc4[nH]3)[nH]n2)cc(OC)c1OC
TGI: 18.3 µM
//
compound: CCN(CC)CCCNc1nc2ccccc2c2[nH]c3ccc(OC)cc3c12
TGI: 2.41 µM
//
compound: CC(=O)N=c1ccc2nc3c(cc(N)c4ccccc43)oc-2c1
TGI: 2.93 µM
//
compound: Cc1cc(O)cc2c1O[C@@]1(C)CCC3[C@@]4(C)CC[C@H](O)C(C)(C)C4CC[C@@]3(C)[C@H]1C2 (stereo not given in full)
TGI: 4.72 µM
//
compound: CC(C)NCC(O)c1ccc(OCc2ccccc2)c(OCc2ccccc2)c1-c1ccccc1 (stereo not given)
TGI: 3.25 µM
//
compound: NS(=O)(=O)c1ccc(CNc2nc(-c3cccs3)nc3ccc(I)cc23)cc1
TGI: 37.6 µM
//
compound: COc1ccc(/C=C/c2n[nH]c3ccc(N4CCOC4=O)cc23)cc1
TGI: > 100 µM
//
compound: COc1ccccc1Cn1nc(OC)c2cc([N+](=O)[O-])ccc21
TGI: > 84.7 µM
//
compound: FC(F)(Sc1ccccc1)c1nc2ccccc2o1
TGI: > 100 µM
//
compound: Cn1c(-c2ccc(/C=N\N3CCN(/N=C/c4ccc(-c5c[n+]6ccsc6n5C)cc4)CC3)cc2)c[n+]2ccsc12
TGI: > 100 µM
